# assay.target: thrombin (alpha-thrombin) (human, UniProt P00734;P00734 328-363;364-622)
# assay.overview: capillary electrophoresis; simulated body plasma ionic buffer (SBP); exosite II; CE: 400 nM thrombin + 100 nM fluorescein-labeled aptamer in simulated body plasma ionic buffer (SBP; composition and pH not given in the material), 37 C for 2 m
quantity.measured: pKd
Answers are plain numbers, as −log10 of the molar value.

Task: Suppose we examine the binder AGTCCGTGGTAGGGCAGGTTGGGGTGACT (structured_DNA) [HD22] ; what pKd value has been reported?
Output: 7.01
